# assay_protocol: Ionisation constant (pKa)
# Format: physicochemical
Label 1 when pKa is at or above 8; anything below gets -1.

Lookup: Is it the case that Cc1cnc(NCC2(c3ccccn3)CC2)c(=O)n1CC(=O)NCc1ccc2c(N)noc2c1 has pKa reaching or exceeding 8?
Found: 1

More entries:
Lookup: Is the recorded value of pKa equal to or greater than 8 for this compound? Cc1cnc(NCCc2ccccc2)c(=O)n1CC(=O)NCc1ccc2nc(N)sc2c1
Found: -1

Lookup: Check the entry Cc1ccc(NS(=O)(=O)Cc2ccccc2)c(=O)n1CC(=O)NCc1ccc2c(N)[nH]nc2n1 : does pKa equal or exceed 8?
Found: -1

Lookup: # bool: pKa of Cc1cc2cn[nH]c2cc1CNC(=O)Cn1c(C)ccc(NS(=O)(=O)Cc2ccccc2)c1=O >= 8
Found: -1

Lookup: Determine whether measured pKa meets or exceeds 8 for Cc1ccc(NS(=O)(=O)Cc2ccccc2)c(=O)n1CC(=O)NCc1ccc2[nH]nc(N)c2c1
Found: -1

Lookup: Decide: is the reported value of pKa for Cc1cnc(NCC(F)(F)c2ccccc2)c(=O)n1CC(=O)NCc1ccc2[nH]nc(N)c2c1 equal to or greater than 8?
Found: -1

Lookup: I'd appreciate it if you could say whether COc1cccc(S(=O)(=O)Nc2cccn(CC(=O)NCc3ccc4[nH]nc(N)c4c3)c2=O)c1 has pKa at least equal to 8.
Found: -1

Lookup: # check: pKa of COc1ccc(C2(CNc3ncc(C)n(CC(=O)NCc4ccc5[nH]nc(N)c5c4)c3=O)CC2)cc1 is greater than or equal to 8
Found: -1

Lookup: Say whether Cc1ccc(NS(=O)(=O)c2ccc3c(c2)CCO3)c(=O)n1CC(=O)NCc1ccc2[nH]nc(N)c2c1 shows pKa of 8 or more.
Found: -1

Lookup: Please check the record Cc1ccc(NS(=O)(=O)Cc2ccccc2)c(=O)n1CC(=O)NCc1ccc2c(N)noc2c1 and state if its pKa is at or above 8.
Found: 1

Lookup: # bool: pKa of Cc1cnc(NCC2(c3ccc(F)cc3)CC2)c(=O)n1CC(=O)NCc1ccc2c(N)noc2c1 >= 8
Found: 1

Lookup: Record COc1cccc(S(=O)(=O)Nc2cccn(CC(=O)NCc3ccc4c(N)[nH]nc4c3)c2=O)c1 ; criterion: pKa no lower than 8. Met?
Found: -1

###

Quick reference: half-life of the listed items.
# assay_protocol: in vivo
# test_settings: dog, po, 1 mg/kg
Report the value in h with no unit label.

Past entries and their recorded results:
Lookup: Would you kindly share the measured half-life for Cc1cnc(NCCc2ccccc2)c(=O)n1CC(=O)NCc1ccc2[nH]nc(N)c2c1 ?
Found: 2.77

Lookup: Need half-life, item Cc1nc(N)ccc1CNC(=O)Cn1c(C)ccc(NS(=O)(=O)Cc2ccccc2)c1=O
Found: 1.78

Lookup: // half-life lookup, key: Cc1cnc(NCC(c2ccccc2)c2ccccc2)c(=O)n1CC(=O)NCc1ccc2c(N)noc2c1
Found: 4.17

Lookup: Looking for the measured half-life of COc1ccc(CCNc2ncc(C)n(CC(=O)NCc3ccc4[nH]cnc4c3)c2=O)cc1 , can you help?
Found: 1.52

For the next question, use this compound.
Lookup: # get_value(readout='half-life', item= Cc1ccc(NS(=O)(=O)Cc2ccc(Cl)cc2)c(=O)n1CC(=O)NCc1ccc2[nH]cnc2c1 )
Found: 1.15

###

# assay_protocol: in vivo
# test_settings: dog, plasma, po, 1 mg/kg
metric: AUC (ng·h/mL)
Quick reminder: number only, in ng·h/mL, skip the unit.

For orientation, consider the following solved cases.
Lookup: Request the reported AUC associated with Cc1ccc(NS(=O)(=O)Cc2ccccc2)c(=O)n1CC(=O)NCc1ccc2c(N)[nH]nc2c1
Found: 1310

Lookup: I would be grateful if you could share the reported AUC for Cc1cnc(NCC2(c3ccc(F)cc3)CC2)c(=O)n1CC(=O)NCc1ccc2c(N)noc2c1 .
Found: 3150

Lookup: Entry under review: Cc1cnc(NCCc2ccc(F)cc2)c(=O)n1CC(=O)NCc1ccc2c(N)noc2c1 . Reported AUC?
Found: 4680

Others:
Lookup: Value lookup for AUC; key = Cc1cnc(NCCc2ccccc2)c(=O)n1CC(=O)NCc1ccc2[nH]nc(O)c2c1
Found: 18.3

Lookup: Recorded AUC for Cc1cnc(NCC(c2ccccc2)c2ccccc2)c(=O)n1CC(=O)NCc1ccc2c(N)noc2c1 , please?
Found: 2200

Lookup: Quick one: AUC for Cc1ccc(NS(=O)(=O)c2ccc3c(c2)CCO3)c(=O)n1CC(=O)NCc1ccc2[nH]nc(N)c2c1 ?
Found: 298

Lookup: Look up AUC for this compound: COc1ccc(CCNc2ncc(C)n(CC(=O)NCc3ccc4[nH]cnc4c3)c2=O)cc1
Found: 458

Lookup: // returns reported AUC for input COc1cccc(S(=O)(=O)Nc2cccn(CC(=O)NCc3ccc4[nH]nc(N)c4c3)c2=O)c1
Found: 3950

Lookup: Reported AUC, compound Cc1cnc(NC[C@@H](C)c2ccccc2)c(=O)n1CC(=O)NCc1ccc2[nH]cnc2c1 : ____
Found: 1010

###

# assay_protocol: in vivo
# test_settings: dog, plasma, po, 1 mg/kg
Let's look at some compounds and their measured AUC.

Lookup: What AUC value was documented for this compound, Cc1ccc(NS(=O)(=O)Cc2ccccc2)c(=O)n1CC(=O)NCc1ccc2onc(N)c2c1 ?
Found: 630 ng·h/mL

Continuing:
Lookup: Item Cc1cnc(NCCc2ccccc2)c(=O)n1CC(=O)NCc1ccc2cn[nH]c2c1 has what recorded AUC?
Found: 2200 ng·h/mL

Lookup: Quick one: AUC of Cc1cnc(NCC2(c3ccccn3)CC2)c(=O)n1CC(=O)NCc1ccc2c(N)noc2c1 ?
Found: 2230 ng·h/mL

Lookup: // AUC lookup, key: Cc1cnc(NCCc2ccccc2)c(=O)n1CC(=O)NCc1ccc2[nH]cnc2c1
Found: 1630 ng·h/mL

###

# assay_protocol: Ionisation constant (pKa)
# Type: physicochemical
metric: pKa

Example cases with answers are listed next.
Lookup: Can you share its pKa? I mean this compound: Cc1nc2cc(CNC(=O)Cn3c(C)cnc(NCCc4ccccc4)c3=O)ccc2[nH]1
Found: 6.4

Lookup: Any idea what pKa was measured for Cc1cnc(NCC(c2ccccc2)c2ccccc2)c(=O)n1CC(=O)NCc1ccc2c(N)noc2c1 ?
Found: 8.6

Lookup: Item under review: Cc1cnc(NC[C@@H](C)c2ccccc2)c(=O)n1CC(=O)NCc1ccc2[nH]cnc2c1 . Reported pKa?
Found: 5.8

Lookup: Item under review: Cc1ccc(NS(=O)(=O)Cc2ccccc2)c(=O)n1CC(=O)NCc1ccc2c(N)[nH]nc2c1 . Reported pKa?
Found: 3.8

Lookup: For the compound shown here, COc1ccc(CCNc2ncc(C)n(CC(=O)NCc3ccc4[nH]cnc4c3)c2=O)cc1 , give the reported pKa.
Found: 5.8

Lookup: Request the reported pKa associated with Cc1ccc(NS(=O)(=O)Cc2ccccc2)c(=O)n1CC(=O)NCc1ccc2c(N)noc2n1
Found: 4.7

Continuing:
Lookup: Looking for the measured pKa of Cc1cnc(NCCc2ccccc2)c(=O)n1CC(=O)NCc1ccc2[nH]nc(N)c2c1 , can you help?
Found: 3.6

Lookup: Please report the recorded pKa for Cc1cnc(NCCc2ccc3c(c2)CCC3)c(=O)n1CC(=O)NCc1ccc2c(ccn2N)c1 .
Found: 7.4

Lookup: // pKa lookup, key: Cc1cnc(NCCc2ccccc2)c(=O)n1CC(=O)NCc1ccc2c(N)noc2c1
Found: 8.6

Lookup: Given the compound Cc1cnc(NCC2(c3ccc(F)cc3)CC2)c(=O)n1CC(=O)NCc1ccc2[nH]nc(N)c2c1 , what is its reported pKa?
Found: 3.6

Lookup: # get_value(readout='pKa', item= Cc1ccc(NS(=O)(=O)Cc2ccccc2)c(=O)n1CC(=O)NCc1ccc2onc(N)c2c1 )
Found: 8.2

Lookup: pKa for Cc1ccc(NS(=O)(=O)Cc2ccc(Cl)cc2)c(=O)n1CC(=O)NCc1ccc2[nH]cnc2c1 ?
Found: 5.8

###

# assay_protocol: in vivo
# test_settings: dog, in vivo, po, 1 mg/kg
metric: AUC (ng·h/mL)
Please reply with the bare figure in ng·h/mL and do not write the unit itself.

Lookup: GET /values?readout=AUC&item= Cc1nc(N)ccc1CNC(=O)Cn1c(C)ccc(NS(=O)(=O)Cc2ccccc2)c1=O
Found: 2670

Next:
Lookup: Please give the measured AUC for this compound: Cc1nc(N)ccc1CNC(=O)Cn1c(C)cnc(NCCc2ccccc2)c1=O
Found: 4580

###

As shown below, each of these compounds has a reported AUC value.
# assay_protocol: in vivo
# test_settings: dog, plasma, po, 1 mg/kg
Express the result in ng·h/mL but write the number alone.

Example cases with answers are listed next.
Lookup: Item COc1ccc(C2(CNc3ncc(C)n(CC(=O)NCc4ccc5[nH]nc(N)c5c4)c3=O)CC2)cc1 has what recorded AUC?
Found: 3270

Lookup: Suppose we examine the compound Cc1ccc(NS(=O)(=O)Cc2ccc(Cl)cc2)c(=O)n1CC(=O)NCc1ccc2[nH]cnc2c1 ; what AUC value has been reported?
Found: 202

Lookup: Entry Cc1cnc(NCC2(c3ccc(F)cc3)CC2)c(=O)n1CC(=O)NCc1ccc2[nH]nc(N)c2c1 has what AUC?
Found: 2950

Lookup: Fill in: AUC of Cc1ccc(NS(=O)(=O)Cc2ccccc2)c(=O)n1CC(=O)NCc1ccc2c(N)noc2c1 is ___
Found: 3680

Now examine the next entry.
Lookup: Suppose we examine the compound Cc1cnc(NCC(F)(F)c2ccccc2)c(=O)n1CC(=O)NCc1ccc2[nH]nc(N)c2c1 ; what AUC value has been reported?
Found: 5930
